# Tested on: biotinyl-Ile-oxazolone
# Protocol Summary: self-aminoacylation, catalytic enhancement (BIO) (fold over background); higher = more active; k-Seq, kA / k0A0; sequences stand for … in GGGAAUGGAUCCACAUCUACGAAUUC…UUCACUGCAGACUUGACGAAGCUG
Variants at the floor of the assay were thinned out.
Please enter yes where self-aminoacylation is greater than or equal to 1, and no where it is lower.

Q: Please tell me: is the sequence CCACACUUCAAGCAUACGGUC [Fam1B.1 aminoacylation ribozyme variant] at or over 1 in terms of self-aminoacylation?
Result: no

Q: Please tell me: is the sequence CUACGUCAAACAAUCGGUCAG [Fam1A.1 aminoacylation ribozyme variant] at or over 1 in terms of self-aminoacylation?
Result: no
